system: Wild type; test: S. aureus survival, RN4220 and DeltatarO strains – OD600, teichoic acid synthesis inhibitors, primary screen (AID 463173); conditions: S. aureus RN4220 wild type/DeltatarO growth, OD600, 18 h, active compounds read low, screened at 18.75 µg/mL (by protocol)
Hit rate of the full screen: of about 52,000 compounds, about 1,700 (3.3%) were called active. What follows is part of a selection rich in actives, with near analogues and random picks from the rest.
Field: class. Source value: survival. Ranges: lower range: < 30%; middle range: ≥ 30% and < 80%; upper range: ≥ 80%

- COc1cccc(NC(=O)c2nnn(Cc3cccc(C(F)(F)F)c3)c2N)c1: upper range
- CC(C(=O)Nc1ccc(F)c(Cl)c1)N1Cc2ccccc2C1=O (stereo not drawn): lower range
- O=C(Nc1ccccc1F)C(Cc1ccccc1)N1Cc2ccccc2C1=O (stereo not drawn): middle range
- Cc1ccc(C)c(NC(=O)C(CC(C)C)N2Cc3ccccc3C2=O)c1 (stereo not drawn): upper range
- CC(C)(C)C(=O)NCCc1nc2ccccc2n1CCCCOc1ccc(Cl)cc1: lower range
- Cc1ccccc1OCCCCn1c(CCNC(=O)C(C)(C)C)nc2ccccc21: middle range
- CCC1CCCCN1C(=O)c1sc(-n2nc(C)c(Cc3ccccc3)c2C)nc1C (stereo not drawn): middle range
- COC(=O)c1ccc(NC(=O)C(C)N2Cc3ccccc3C2=O)cc1 (stereo not drawn): middle range
- CCc1nc2ccccc2n1CCCCOc1ccc(C)cc1: lower range
- Cc1ccccc1OCCn1c(CCNC(=O)C(C)(C)C)nc2ccccc21: middle range
- O=C(O)c1ccc(-c2ccc(/C=N/N3C(=O)C4C(C3=O)C3C=CC4C34CC4)o2)cc1 (stereo not drawn): upper range
- O=C(CSC1=Nc2ccccc2N=C(c2ccc(F)cc2)C1)NCc1ccc(F)cc1: upper range
- CC(C(=O)Nc1ccc(OC(F)(F)F)cc1)N1Cc2ccccc2C1=O (stereo not drawn): lower range
- Cc1ccc(NC(=O)C(CC(C)C)N2Cc3ccccc3C2=O)cc1F (stereo not drawn): lower range
- CC1(C)CC(=O)c2cc(-c3nc(-c4ccc(Cl)cc4)cs3)c(=O)n(-c3ccc(Cl)cc3)c2C1: middle range
- COc1ccccc1C(=O)NCCSc1c(C)[nH]c2ccccc12: middle range
- CCCn1c(COc2cccc(C)c2)nc2ccccc21: lower range
- O=C(Nc1ccc(F)cc1)[C@H](Cc1ccccc1)N1Cc2ccccc2C1=O: upper range

====

system: Wild type; test: S. aureus survival, RN4220 and DeltatarO strains – OD600, teichoic acid synthesis inhibitors, primary screen (AID 463173); conditions: S. aureus RN4220 wild type/DeltatarO growth, OD600, 18 h, active compounds read low, screened at 18.75 µg/mL (by protocol)
Among all 52,000 compounds or so, about 1,700 (3.3%) were called active. The list comes from a sample in which actives are over-represented; it also holds close analogues and randomly drawn compounds.
Rule: survival below 70% gives rule met. Equal to or above 70% gives rule not met.

* O=C(Nc1ccccc1C(F)(F)F)C1(S(=O)(=O)c2ccc(Cl)cc2)CC1 | rule not met
* O=C(Nc1c(C(=O)N2CCN(c3ccc(F)cc3)CC2)oc2ccccc12)c1ccco1 | rule not met
* O=C(Nc1c(C(=O)N2CCN(c3ccccc3)CC2)oc2ccccc12)c1ccco1 | rule met
* CCc1cccc(NC(=O)Cn2c(=O)n(CCc3ccc(OC)c(OC)c3)c(=O)c3ccccc32)c1 | rule not met
* CCN1CCC(N(Cc2ccc(F)cc2)C(=O)Nc2cc(Cl)ccc2C(=O)OC)CC1 | rule not met
* NC(=S)N/N=C/c1ccc(Sc2cccc3cccnc23)o1 | rule not met
* COc1ccc(CCNc2nc(SCc3cccc(F)c3)nc3ccccc23)cc1OC | rule not met
* COC(=O)c1ccc(NC(=O)C2(S(=O)(=O)c3ccc(C)cc3)CC2)cc1 | rule not met
* COc1ccc(NC(=O)N(C(C)C)C2CCN(C(C)=O)CC2)c(OC)c1 | rule met
* O=C1CCCC2=C1C(c1ccc3c(c1)OCO3)c1c([nH]c(=O)[nH]c1=O)N2 (configuration not stated) | rule not met
* Cc1ccc(S(=O)(=O)C2(C(=O)Nc3ccc(C(C)C)cc3)CC2)cc1 | rule met
* O=C(Cn1c(=O)n(-c2ccc(F)cc2)c(=O)c2sc3ccccc3c21)NC1CCCCC1 | rule not met
* Fc1cccc(CSc2nc(NCCc3ccccc3)c3ccccc3n2)c1 | rule met
* COc1ccc(NC(=O)N(Cc2ccco2)C2CCN(C(C)=O)CC2)c(OC)c1 | rule not met
* Clc1cccc(CSc2nc(NCCc3ccccc3)c3ccccc3n2)c1 | rule met
* COc1ccccc1C(=O)Nc1c(C(=O)Nc2ccccc2F)oc2ccccc12 | rule met
